// data source = PubChem BioAssay AID624169

Target: 5-hydroxytryptamine receptor 2A (Mus musculus)
Experiment: mouse Htr2a agonists via beta-arrestin recruitment, primary screen, cell-based, luminescence (AID 624169)
Settings: CHO-K1 mHTR2A beta-arrestin complementation, at 7.6 µM, percent of 30 µM serotonin response
Hit rate of the full screen: of about 360,000 compounds, about 2,400 (0.67%) were called active.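 How the source made its calls: active means activation above a run cutoff, the mean activation of all tested compounds plus 3 SD (cut at about 14% in these data); inactive means the rest.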 What follows is part of a selection rich in actives, with near analogues and random picks from the rest.
Outcome codes: true for active, false for inactive

INSERT INTO assay_data (compound, qualitative_label) VALUES
  ('CC(=O)c1sc(NC(=O)CCN2C(=O)C3CC=CCC3C2=O)nc1-c1ccccc1 (configuration not stated)', 'false'),
  ('Cc1cccc(CN2CCN(C3CN(Cc4cn(Cc5cc(C)cc(C)c5)nn4)S(=O)(=O)C3)CC2)c1 (configuration not stated)', 'true'),
  ('Cc1ccccc1-n1nc(SCC(=O)O)sc1=S', 'false'),
  ('Cc1ccc(OCCC(=O)OCC(=O)N2c3ccccc3NC(=O)C2(C)C)cc1', 'false'),
  ('COC(=O)c1ccc(-c2c(-c3ccccc3)ncc3cc(OC)c(OC)cc23)cc1', 'false'),
  ('O=C(NCCS(=O)(=O)N1CCN(c2ccc(F)cc2)CC1)c1ccc2c(c1)OCO2', 'false'),
  ('CC(=O)c1cc(CN2CCC(n3nccc3NC(=O)c3ccccc3Cl)CC2)cs1', 'false'),
  ('O=C(O)c1ccccc1Cc1ccc(F)c2ccccc12', 'false'),
  ('COc1ccc(/C(=N\O)c2nccc3cc(OC)c(OC)cc23)cc1OC', 'true'),
  ('CCS(=O)(=O)Nc1ccc(C2=NN(S(=O)(=O)c3ccc(F)cc3)C(c3ccco3)C2)cc1 (configuration not stated)', 'false'),
  ('O=C(Nc1cc(=O)[nH]c2ncnn12)c1ccccc1Cl', 'true'),
  ('CC(C)(C)SCCSC1=CC(=O)CC(c2ccccc2)C1 (configuration not stated)', 'false'),
  ('COc1ccc(Cn2c(=O)sc3ccccc32)cc1OC', 'false'),
  ('Cc1cccc(CN2CCN(C3CN(Cc4ccccc4)S(=O)(=O)C3)CC2)c1 (configuration not stated)', 'true'),
  ('Cc1cc(C(=O)OCC(=O)N2c3ccccc3NC(=O)C2(C)C)c(C)n1-c1ccccc1', 'true'),
  ('Cc1cccc(CN2CCN(C3CN(Cc4cn(Cc5ccccc5F)nn4)S(=O)(=O)C3)CC2)c1 (configuration not stated)', 'false'),
  ('CCOCCCN1C(=O)C2C(C(=O)Nc3ccc(OCC)cc3)C3C=CC2(O3)C1C(=O)NC1CCCCC1 (configuration not stated)', 'false'),
  ('COc1cc2ccc(C(C)=O)c(O)c2cc1OC', 'false'),
  ('CNS(=O)(=O)c1cccc(C(=O)OCC(=O)N2c3ccccc3NC(=O)C2(C)C)c1', 'false'),
  ('CC(=O)Nc1ccc(C(=O)N(C2=NC(C)CS2)c2ccc(Cl)cc2)cc1 (configuration not stated)', 'false'),
  ('Cc1ccccc1C(=O)N1CCC(C(=O)Oc2ccc(C#N)cc2)CC1', 'false'),
  ('COc1ccc(-c2nnc3n2CCCCC3)cc1', 'false');
